Data credit: PubChem BioAssay

# EXPERIMENT: modulators of CIT2-GFP expression in yeast, confirmation, S. cerevisiae, GFP fusion, cherry picks, mother/daughter gates (AID 2274)
# CONDITION_SET: S. cerevisiae CIT2-GFP strain, flow cytometry, 3 h; at 10 µM; hits give high values
MEASURED_QUANTITY: GFP response, % of DMSO (%)
All answers are understood in %, so give the number only.

Cc1ccc(/C=C/C(=O)c2ccccc2)cc1 ... 102

Input: For "COc1ccc(/C=N/Nc2nc(-c3cccnc3)nc3ccccc23)c(OC)c1" , write its GFP response, % of DMSO.
Output: 108

Input: Kindly indicate its recorded GFP response, % of DMSO. Item: "CCOC(=O)c1ccc(NC(=O)c2nc(S(=O)(=O)Cc3ccccc3)ncc2Cl)cc1"
Output: 97.8

Input: Give GFP response, % of DMSO for O=C(O)CSC1CC(=O)N(c2ccc(Cl)c(Cl)c2)C1=O (stereo not drawn)
Output: 100

Input: Supply GFP response, % of DMSO value. Item: "CCOc1ccc(CNC(=O)CCC(=O)N2Cc3cccc(OC)c3Oc3ncccc32)cc1"
Output: 101

Input: Please list GFP response, % of DMSO recorded for the compound "COc1ccccc1-c1nnc(NC(=O)c2ccc(S(=O)(=O)N3CCCC3)cc2)o1"
Output: 107

Input: For the compound "Cc1ccc(S(=O)(=O)Cc2cc(F)c([N+](=O)[O-])cc2[N+](=O)[O-])cc1" , give its measured GFP response, % of DMSO value.
Output: 89.7

Input: Respond only with GFP response, % of DMSO recorded for "Clc1ccc(OCCn2cnc3ccccc32)c(Cl)c1"
Output: 82.6

Input: Please report the measured GFP response, % of DMSO for "Cc1cc(NCCCN2CCOCC2)n2ncc(-c3ccccc3)c2n1"
Output: 95.2

Input: Name the recorded GFP response, % of DMSO of the item "Clc1cnc(N/N=C/c2cccs2)c(Cl)c1" in your answer.
Output: 103

Input: Give a short answer stating reported GFP response, % of DMSO for "C[n+]1ccc(/C=C/c2c[nH]c3ccc(F)cc23)cc1" .
Output: 110

Input: Note down GFP response, % of DMSO recorded for "COc1ccc(C(=O)Oc2ccc(/C=N/NC(=O)c3ccccc3OC)cc2[N+](=O)[O-])cc1"
Output: 104
